experimental-system: Cannabinoid receptor 1 (Homo sapiens)
Sequence (P21554 whole entry): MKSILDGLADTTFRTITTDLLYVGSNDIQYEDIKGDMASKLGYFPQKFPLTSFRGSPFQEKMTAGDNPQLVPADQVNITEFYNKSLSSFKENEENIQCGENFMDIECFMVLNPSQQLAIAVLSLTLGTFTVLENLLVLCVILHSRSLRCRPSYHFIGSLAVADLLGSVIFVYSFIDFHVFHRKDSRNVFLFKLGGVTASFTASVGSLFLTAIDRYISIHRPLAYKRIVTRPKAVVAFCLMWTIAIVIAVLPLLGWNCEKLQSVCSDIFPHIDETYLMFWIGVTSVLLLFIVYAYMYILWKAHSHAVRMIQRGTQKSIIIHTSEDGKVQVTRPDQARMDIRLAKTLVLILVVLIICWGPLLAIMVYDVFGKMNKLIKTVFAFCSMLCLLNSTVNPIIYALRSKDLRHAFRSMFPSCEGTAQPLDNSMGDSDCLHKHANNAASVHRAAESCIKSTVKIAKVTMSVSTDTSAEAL
pKi: −log10 of the molar value.
Returns one of Criterion met or Criterion not met; Criterion met when pKi is >= 8.

Oc1cccc(N2CCN(c3ncnc4c3nc(-c3ccccc3Cl)n4-c3ccc(Cl)cc3)CC2)c1 ... Criterion not met
COc1ccccc1N1CCN(c2ncnc3c2nc(-c2ccccc2Cl)n3-c2ccc(Cl)cc2)CC1 ... Criterion met
Clc1ccc(-n2c(-c3ccccc3Cl)nc3c(N4CCN(Cc5ccccc5)CC4)ncnc32)cc1 ... Criterion met

* * *

# key: entry, value: pKi
experimental-system: Cannabinoid receptor 2 (Homo sapiens, UniProt P34972)
Sequence (P34972 whole entry): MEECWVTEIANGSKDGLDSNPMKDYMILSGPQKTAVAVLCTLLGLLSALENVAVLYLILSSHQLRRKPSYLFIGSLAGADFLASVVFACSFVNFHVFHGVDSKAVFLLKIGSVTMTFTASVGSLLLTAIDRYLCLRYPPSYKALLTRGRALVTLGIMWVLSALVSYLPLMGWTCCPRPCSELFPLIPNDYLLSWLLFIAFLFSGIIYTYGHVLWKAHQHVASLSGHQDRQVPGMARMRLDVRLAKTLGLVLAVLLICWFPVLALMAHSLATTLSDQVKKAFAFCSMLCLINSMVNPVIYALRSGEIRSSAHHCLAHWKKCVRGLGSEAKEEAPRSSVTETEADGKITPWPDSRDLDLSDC
pKi: −log10 of the molar value.
measured-attribute: pKi

N#Cc1ccc(N2CCN(c3ncnc4c3nc(-c3ccccc3Cl)n4-c3ccc(Cl)cc3)CC2)cc1 ... < 5.00
Cc1ccc(CN2CCN(c3ncnc4c3nc(-c3ccccc3Cl)n4-c3ccc(Cl)cc3)CC2)cc1 ... < 5.00
FC(F)(F)Oc1ccccc1CN1CCN(c2ncnc3c2nc(-c2ccccc2Cl)n3-c2ccc(Cl)cc2)CC1 ... < 5.00
Clc1ccc(CN2CCN(c3ncnc4c3nc(-c3ccccc3Cl)n4-c3ccc(Cl)cc3)CC2)cc1 ... < 5.00
Clc1ccc(-n2c(-c3ccccc3Cl)nc3c(N4CCN(c5ccccc5)CC4)ncnc32)cc1 ... < 5.00
Oc1cccc(N2CCN(c3ncnc4c3nc(-c3ccccc3Cl)n4-c3ccc(Cl)cc3)CC2)c1 ... < 5.00
COc1ccccc1N1CCN(c2ncnc3c2nc(-c2ccccc2Cl)n3-c2ccc(Cl)cc2)CC1 ... 5.30
Clc1ccc(-n2c(-c3ccccc3Cl)nc3c(N4CCN(Cc5ccccc5)CC4)ncnc32)cc1 ... 6.37
Cc1ccccc1CN1CCN(c2ncnc3c2nc(-c2ccccc2Cl)n3-c2ccc(Cl)cc2)CC1 ... 5.34
N#CC(c1ccccc1)N1CCN(c2ncnc3c2nc(-c2ccccc2Cl)n3-c2ccc(Cl)cc2)CC1 (centres undefined) ... 6.34
Clc1ccc(-n2c(-c3ccccc3Cl)nc3c(N4CCN(CCc5ccncc5)CC4)ncnc32)cc1 ... 6.20
COc1ccc(CN2CCN(c3ncnc4c3nc(-c3ccccc3Cl)n4-c3ccc(Cl)cc3)CC2)cc1 ... < 5.00
COc1ccc(N2CCN(c3ncnc4c3nc(-c3ccccc3Cl)n4-c3ccc(Cl)cc3)CC2)cc1 ... < 5.00
N#Cc1ccccc1N1CCN(c2ncnc3c2nc(-c2ccccc2Cl)n3-c2ccc(Cl)cc2)CC1 ... < 5.00
